System: 786-0
Test: MTT cytotoxicity (IC50), 786-0
Format: cell-based
Conditions: Homo sapiens, MTT, 72 h, read-out: IN Vitro IC50 (nm) 786-0
Experimental: Compound 17932 was tested in four of these cell lines, while the remaining compounds were tested in all of these cell lines. […] Plates were incubated for 72 h and cell viability was determined by adding 50 μL of warm TCM containing 5 mg/mL MTT (3-[4,5-dimethylthiazol-2-yl]-2,5-diphenyltetrazolium bromide) to each well and incubating for 1 h at 37° C. Plates were processed and the absorbances of the resulting solutions were measured by a plate reader at 570 nm. […]
Record form. Attribute: IC50. Fill in for each entry.
Give bare numbers, in nM.

Sample records with IC50:
Compound	IC50 / nM
CCC(=O)O[C@H]1C(=O)[C@@]2(C)C([C@H](OC(=O)c3ccccc3)[C@]3(O)C[C@H](OC(=O)[C@H](O)[C@@H](NC(=O)OC4CCC4)c4cccs4)C(C)=C1C3(C)C)[C@]1(OC(C)=O)CO[C@@H]1C[C@@H]2O (some centres unmarked)	0.9
CC(=O)O[C@@]12CO[C@@H]1C[C@H](O)[C@@]1(C)C(=O)[C@H](OC(=O)C3CC3)C3=C(C)[C@@H](OC(=O)[C@H](O)[C@@H](NC(=O)OC4CCC4)c4cccs4)C[C@@](O)([C@@H](OC(=O)c4ccccc4)C12)C3(C)C (some centres unmarked)	1.1
CC(=O)O[C@@]12CO[C@@H]1C[C@H](O)[C@@]1(C)C(=O)[C@H](O)C3=C(C)[C@@H](OC(=O)[C@H](O)[C@@H](NC(=O)OC(C)(C)C)c4ccccc4)C[C@@](O)([C@@H](OC(=O)c4ccccc4)[C@H]21)C3(C)C [Docetaxel, docetaxel, reference compound]	6.2

In: Please report the measured IC50 for CCC(=O)O[C@H]1C(=O)[C@@]2(C)C([C@H](OC(=O)c3ccccc3)[C@]3(O)C[C@H](OC(=O)[C@H](O)[C@@H](NC(=O)OC4CCCC4)c4cccs4)C(C)=C1C3(C)C)[C@]1(OC(C)=O)CO[C@@H]1C[C@@H]2O (some centres unmarked)
Out: 0.7

====

Would you mind telling me the reported IC50 of each entry?
Tested on: A375
Test: MTT cytotoxicity (IC50), A375
Assay type: cell-based
Conditions: Homo sapiens, A-375; Resistance MRP9; read-out: A375 Melanoma (Table 4, quantity not named; IC50 values as Table 2)
Give bare numbers, in nM.

Some molecules with recorded IC50:
Molecule	Assay Target	Observation Type	Recorded Measurement
CC(=O)O[C@H]1C(=O)[C@@]2(C)[C@H]([C@H](OC(=O)c3ccccc3)[C@]3(O)C[C@H](OC(=O)[C@H](O)[C@@H](NC(=O)c4ccccc4)c4ccccc4)C(C)=C1C3(C)C)[C@]1(OC(C)=O)CO[C@@H]1C[C@@H]2O [Paclitaxel, paclitaxel, reference compound]	A375	IC50	8
CCC(=O)O[C@H]1C(=O)[C@@]2(C)C([C@H](OC(=O)c3ccccc3)[C@]3(O)C[C@H](OC(=O)[C@H](O)[C@@H](NC(=O)OC4CCCC4)c4cccs4)C(C)=C1C3(C)C)[C@]1(OC(C)=O)CO[C@@H]1C[C@@H]2O (some centres unmarked)	A375	IC50	0.5
CC(=O)O[C@@]12CO[C@@H]1C[C@H](O)[C@@]1(C)C(=O)[C@H](O)C3=C(C)[C@@H](OC(=O)[C@H](O)[C@@H](NC(=O)OC(C)(C)C)c4ccccc4)C[C@@](O)([C@@H](OC(=O)c4ccccc4)[C@H]21)C3(C)C [Docetaxel, docetaxel, reference compound]	A375	IC50	2.4
CC(=O)O[C@@]12CO[C@@H]1C[C@H](O)[C@@]1(C)C(=O)[C@H](OC(=O)C3CC3)C3=C(C)[C@@H](OC(=O)[C@H](O)[C@@H](NC(=O)OC4CCC4)c4cccs4)C[C@@](O)([C@@H](OC(=O)c4ccccc4)C12)C3(C)C (some centres unmarked)	A375	IC50	0.6

Now for a further molecule.
In: Item CCC(=O)O[C@H]1C(=O)[C@@]2(C)C([C@H](OC(=O)c3ccccc3)[C@]3(O)C[C@H](OC(=O)[C@H](O)[C@@H](NC(=O)OC4CCC4)c4cccs4)C(C)=C1C3(C)C)[C@]1(OC(C)=O)CO[C@@H]1C[C@@H]2O (some centres unmarked) : provide IC50
Out: 0.5
